target: Adenosine receptor A3 (Homo sapiens); experiment: Displacement of [3H]PSB-11 from human recombinant adenosine A3 receptor expressed in CHO cells at 10 uM; type: cell-based
Short version: inhibition at least 30% is MET, less is NOT MET.

Some solved entries appear below for comparison.
{"mol": "CCn1c(=O)[nH]c2nc(-c3ccc(S(=O)(=O)N4CCN(Cc5ccc(Cl)cc5)CC4)cc3)[nH]c2c1=O", "measurement_target": "Adenosine receptor A3 (Homo sapiens)", "group_label": "NOT MET"}
{"mol": "CCCn1c(=O)[nH]c2nc(-c3ccc(S(=O)(=O)N4CCN(Cc5ccc(C(F)(F)F)cc5)CC4)cc3)[nH]c2c1=O", "measurement_target": "Adenosine receptor A3 (Homo sapiens)", "group_label": "MET"}
{"mol": "CCn1c(=O)[nH]c2nc(-c3ccc(S(=O)(=O)N4CCN(Cc5ccccc5)CC4)cc3)[nH]c2c1=O", "measurement_target": "Adenosine receptor A3 (Homo sapiens)", "group_label": "NOT MET"}

Ask: Textbook exercise: given the entry CCn1c(=O)[nH]c2nc(-c3ccc(S(=O)(=O)N4CCN(Cc5ccc(C(F)(F)F)cc5)CC4)cc3)[nH]c2c1=O , state whether its inhibition is greater than or equal to 30%.
Reply: NOT MET

Ask: Repeat for the following molecule: CCCn1c(=O)[nH]c2nc(-c3ccc(S(=O)(=O)N4CCN(c5ccc(Cl)cc5)CC4)cc3)[nH]c2c1=O
Reply: NOT MET

Ask: Repeat for the following molecule: CCn1c(=O)[nH]c2nc(-c3ccc(S(=O)(=O)N4CCN(Cc5ccc6c(c5)OCO6)CC4)cc3)[nH]c2c1=O
Reply: NOT MET

Ask: Repeat for the following molecule: CCn1c(=O)[nH]c2nc(-c3ccc(S(=O)(=O)N4CCN(Cc5cccc(C(F)(F)F)c5)CC4)cc3)[nH]c2c1=O
Reply: MET

Ask: Repeat for the following molecule: CCCn1c(=O)[nH]c2nc(-c3ccc(S(=O)(=O)N4CCN(Cc5ccc(OC)cc5)CC4)cc3)[nH]c2c1=O
Reply: MET

---

target: Adenosine receptor A2a (Rattus norvegicus, UniProt P30543); experiment: Displacement of [3H]MSX-2 from rat brain striatum adenosine A2A receptor
Sequence (P30543 whole entry): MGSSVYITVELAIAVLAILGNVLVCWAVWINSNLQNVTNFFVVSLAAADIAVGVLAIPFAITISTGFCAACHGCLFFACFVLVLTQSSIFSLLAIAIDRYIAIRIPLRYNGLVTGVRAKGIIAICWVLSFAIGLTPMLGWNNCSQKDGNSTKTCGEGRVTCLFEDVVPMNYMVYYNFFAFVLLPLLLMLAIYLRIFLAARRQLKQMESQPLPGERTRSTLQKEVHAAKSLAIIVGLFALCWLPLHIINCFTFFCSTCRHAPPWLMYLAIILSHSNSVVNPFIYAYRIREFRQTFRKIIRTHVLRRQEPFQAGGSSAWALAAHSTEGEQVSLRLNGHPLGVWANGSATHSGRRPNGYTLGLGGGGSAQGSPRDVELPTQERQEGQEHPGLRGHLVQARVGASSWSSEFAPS
readout_name: pKi
pKi (log units): -log10 of the concentration in mol/L.

{"mol": "CCCn1c(=O)[nH]c2nc(-c3ccc(S(=O)(=O)N4CCCCC4)cc3)[nH]c2c1=O", "measurement_target": "Adenosine receptor A2a (Rattus norvegicus, UniProt P30543)", "pKi": 6.15}
{"mol": "CCn1c(=O)[nH]c2nc(-c3ccc(S(=O)(=O)N4CCN(Cc5ccc(C(F)(F)F)cc5)CC4)cc3)[nH]c2c1=O", "measurement_target": "Adenosine receptor A2a (Rattus norvegicus, UniProt P30543)", "pKi": 6.91}
{"mol": "CCCn1c(=O)[nH]c2nc(-c3ccc(S(=O)(=O)N4CCN(Cc5ccc(C)cc5)CC4)cc3)[nH]c2c1=O", "measurement_target": "Adenosine receptor A2a (Rattus norvegicus, UniProt P30543)", "pKi": 5.76}

Ask: Item: CCn1c(=O)[nH]c2nc(-c3ccc(S(=O)(=O)N4CCCCC4)cc3)[nH]c2c1=O Test system: Adenosine receptor A2a (Rattus norvegicus, UniProt P30543) Read-out: pKi Value: ?
Reply: 6.60

Data origin: ChEMBL document CHEMBL1137016
